Data origin, for the record: patent US12365687B2

Test target: human GABAA α1β3γ2 receptor (Homo sapiens (Human), UniProt P14867+P18507)
Procedure text: Radioligand binding assay for γ2-containing GABAA subtypes, [3H]Flumazenil competition (α1β3γ2)
Description: The affinity of compounds at GABAA γ2 subunit-containing receptors was measured by competition for [^3H]Flumazenil (81.1 Ci/mmol; Roche) binding to HEK293F cells expressing human (transiently transfected) receptors of composition α1β3γ2. Harvested pellets from HEK293F cells expressing the different GABAA γ2 receptor subtypes were resuspended in Mannitol Buffer pH 7.2-7.4 and processed as described above for the cells expressing the GABAA γ1 subunit-containing receptors. […]
Here the recorded Ki is given for each entry.
Metric: Ki (nM)

Smiles string	Observed result
C[C@@H]1N=C(c2c(F)cccc2F)c2c(ccc(Cl)c2Cl)-n2nc(C(=O)NC3(C#N)CC3)nc21	585
COC1CN(C(=O)c2nc3n(n2)-c2ccc(Cl)c(Cl)c2C(c2ncccc2F)=NC3)C1	773
C[C@@H]1N=C(c2c(F)cccc2F)c2c(ccc(C(F)(F)F)c2Cl)-n2nc(C(=O)NC[C@@H](C)O)nc21	5130
C[C@@H]1N=C(c2c(F)cccc2F)c2c(ccc(C(F)(F)F)c2Cl)-n2nc(C(=O)NN3CCCC3)nc21	4450
